Would you mind telling me the reported fluorescence slope of each entry?
# assay.target: Muscarinic acetylcholine receptor M4 (Homo sapiens)
# method.notes: M4-linked GIRK flux change, two-sided – cell-based, HEK293 M4/GIRK, thallium flux, BTC-AM, M4 allosteric agonist project, primary screen (AID 625);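 note: thallium influx through GIRK channels coupled to M4 in HEK293 cells with BTC-AM dye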
# experimental.parameters: at 10 µM, actives lie on both sides
Answers are plain numbers.

Example entries and their recorded answers appear below.
CCOCCn1cnc2sc(C(=O)NCC(=O)OCC)c(C)c2c1=O
0.00587
CCn1c(C(=O)N2CCCC(C(=O)O)C2)cc2sccc21 (centres undefined)
0.00595
COCCN1C(=O)C(=O)/C(=C(/O)c2cccc(S(=O)(=O)N(C)C)c2)C12C(=O)N(C)c1ccccc12 (centres undefined)
0.00617

The record that follows has no fluorescence slope shown yet.
Record `c1nnc(NC2=NCCCCC2)s1` has Muscarinic acetylcholine receptor M4 (Homo sapiens) fluorescence slope equal to 0.00597

src = PubChem BioAssay
